# tested_system: pooled human IgG (human IgG1, 2, 3 and 4) (human); further: test concentration or dose not given here
# method_summary: cell-based or functional assay
measure: Enzyme Activity Endpoint Assay: Fc

Using the record for PRT-411 (enzyme) MVTSVWTKGVTPPADFTQGEDVFHAPYVANQGWYDITKTFNGKDDLLCGAATAGNMLHWWFDQNKEYIEAYLKKHPEKQKIMFGDQELLDVRKAINTKGSQKNSELFNYFRDKAFPNLSARRLGVMPDLVLDMFINGYYLNVTKTQTTDVNRTYQEKDKRGGIFDAVFTRGDQSKLLTSRHDFKEKGLKEISDLIKQELTEGKALGLSHTYANVRINHVINLWGADFDSDGNLKAIYVTDSDSRASIGMKKYFVGVNSAGKVAISAKEIKEDNIGAQVLGLFTLSTGQDIWNQTN , report its Enzyme Activity Endpoint Assay: Fc.
341 ng/µL
